Where these numbers come from: patent US20190381014A1

Experiment: Rat PK study (single IV and PO dose, plasma LC-MS/MS)
Assay type: in vivo, S-D rats
Details: Sprague-Dawley (S-D), rat, plasma; S-D rats, IV 2 mg/kg
Method: […] S-D rats of Group A were given a single intravenous injection (IV) of 2 mg·kg^−1, respectively; S-D rats of Group B were given a single gavage administration (PO) of 10 mg·kg^−1, respectively. […] Concentrations of compounds in the plasma samples were analyzed using a LC-MS/MS method. The pharmacokinetic parameters were calculated using non-compartment model in Pharsight Phoenix 7.0 software. […]
Label YES when AUC(0-t) >= 1000 ng·h/mL; otherwise NO.

Prompt: Kindly determine if AUC(0-t) recorded for COc1cc2c(cc1C#CC1CC1)C[C@@H](C(C)C)n1cc(C(=O)O)c(=O)cc1-2 is above or exactly 1000 ng·h/mL.
Response: NO

Prompt: Kindly determine if AUC(0-t) recorded for COc1cc2c(cc1OCCCC(C)=O)C[C@@H](C(C)C)n1cc(C(=O)O)c(=O)cc1-2 is above or exactly 1000 ng·h/mL.
Response: NO

Prompt: Kindly determine if AUC(0-t) recorded for COc1cc2c(cc1O[C@@H]1CCOC1)C[C@@H](C(C)C)n1cc(C(=O)O)c(=O)cc1-2 is above or exactly 1000 ng·h/mL.
Response: YES

Prompt: Kindly determine if AUC(0-t) recorded for COc1cc2c(cc1OCC1CC(OC)C1)C[C@@H](C(C)C)n1cc(C(=O)O)c(=O)cc1-2 (stereo partly drawn) is above or exactly 1000 ng·h/mL.
Response: YES

Prompt: Kindly determine if AUC(0-t) recorded for COc1cc2c(cc1O[C@H]1C[C@H](OC)C1)C[C@@H](C(C)C)n1cc(C(=O)O)c(=O)cc1-2 is above or exactly 1000 ng·h/mL.
Response: YES

Prompt: Kindly determine if AUC(0-t) recorded for COCCCOc1cc2c(cc1OC)-c1cc(=O)c(C(=O)O)cn1[C@H](C(C)C)C2 [A, reference compound] is above or exactly 1000 ng·h/mL.
Response: YES

Prompt: Kindly determine if AUC(0-t) recorded for COc1cc2c(cc1OC1CCCC1)C[C@@H](C(C)C)n1cc(C(=O)O)c(=O)cc1-2 is above or exactly 1000 ng·h/mL.
Response: YES

Prompt: Kindly determine if AUC(0-t) recorded for COCC1(COc2cc3c(cc2OC)-c2cc(=O)c(C(=O)O)cn2[C@H](C(C)C)C3)COC1 is above or exactly 1000 ng·h/mL.
Response: YES

====

Test: Rat PK study (single IV and PO dose, plasma LC-MS/MS)
Format: in vivo, S-D rats
Details: Sprague-Dawley (S-D), rat, plasma; S-D rats, IV 2 mg/kg
Description: […] S-D rats of Group A were given a single intravenous injection (IV) of 2 mg·kg^−1, respectively; S-D rats of Group B were given a single gavage administration (PO) of 10 mg·kg^−1, respectively. […] Concentrations of compounds in the plasma samples were analyzed using a LC-MS/MS method. The pharmacokinetic parameters were calculated using non-compartment model in Pharsight Phoenix 7.0 software. […]
Kindly supply the reported clearance values for the records listed here.
Just the number please, in mL/min/kg, no unit attached.

Prompt: Could you tell me which clearance is on file for COCC1(COc2cc3c(cc2OC)-c2cc(=O)c(C(=O)O)cn2[C@H](C(C)C)C3)COC1 ?
Response: 28.8

Prompt: Could you tell me which clearance is on file for COc1cc2c(cc1OCC1CC(OC)C1)C[C@@H](C(C)C)n1cc(C(=O)O)c(=O)cc1-2 (stereo partly drawn) ?
Response: 15.7

Prompt: Could you tell me which clearance is on file for COc1cc2c(cc1C#CC1CC1)C[C@@H](C(C)C)n1cc(C(=O)O)c(=O)cc1-2 ?
Response: 35.9

Prompt: Could you tell me which clearance is on file for COCC1(COc2cc3c(cc2OC)-c2cc(=O)c(C(=O)O)cn2[C@H](C(C)C)C3)CC1 ?
Response: 33.6

Prompt: Could you tell me which clearance is on file for COc1cc2c(cc1OC1CCCC1)C[C@@H](C(C)C)n1cc(C(=O)O)c(=O)cc1-2 ?
Response: 22.7

Prompt: Could you tell me which clearance is on file for COc1cc2c(cc1O[C@H]1C[C@H](OC)C1)C[C@@H](C(C)C)n1cc(C(=O)O)c(=O)cc1-2 ?
Response: 11.3

Prompt: Could you tell me which clearance is on file for COc1cc2c(cc1O[C@@H]1CCOC1)C[C@@H](C(C)C)n1cc(C(=O)O)c(=O)cc1-2 ?
Response: 18.6

Prompt: Could you tell me which clearance is on file for COCCCOc1cc2c(cc1OC)-c1cc(=O)c(C(=O)O)cn1[C@H](C(C)C)C2 [A, reference compound] ?
Response: 20.8

Prompt: Could you tell me which clearance is on file for COc1cc2c(cc1OCCCC(C)=O)C[C@@H](C(C)C)n1cc(C(=O)O)c(=O)cc1-2 ?
Response: 65.9
